target: T1, FcRn-p3 fusion protein (human, UniProt P55899 24-297; P61769 21-119); assay: phage ELISA pH6 (est.)
T1 construct: baculovirus expressed; coated on ELISA wells; not shown: amino terminal part of bacteriophage p3 protein and CVDE protein
T1 sequence (P55899 24-297, chain 1 of 2): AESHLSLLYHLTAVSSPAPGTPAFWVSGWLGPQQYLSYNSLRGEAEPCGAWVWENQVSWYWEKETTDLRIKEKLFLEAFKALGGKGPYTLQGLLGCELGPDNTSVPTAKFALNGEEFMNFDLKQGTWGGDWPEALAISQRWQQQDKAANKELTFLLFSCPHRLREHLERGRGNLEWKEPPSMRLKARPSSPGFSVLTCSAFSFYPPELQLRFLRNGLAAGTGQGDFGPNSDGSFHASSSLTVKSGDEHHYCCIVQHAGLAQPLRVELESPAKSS
T1 sequence (P61769 21-119, chain 2 of 2): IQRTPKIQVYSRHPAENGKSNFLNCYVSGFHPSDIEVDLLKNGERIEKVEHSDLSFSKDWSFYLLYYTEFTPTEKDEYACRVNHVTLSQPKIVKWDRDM
metric: Ratio/FWT (fold)
Numbers only, in fold.

Quick batch: Ratio/FWT for everything below.
1. T5A_52 (other, EU numbering) CPPCPAPELLGGPSVFLFPPKPKDTLMISRTPEVTCVVVDVSHEDPEVKFNWYVDGVEVHNAKTKPREEQYNSTYRVVSVLTVLHQDWLDGKEYKCKVSNKVLPVPIEKTISKAKGQPREPQVYTLPPSRDELTKNQVSLTCLVKGFYPSDIAVEWESNGQPENNYKTTPPVLDSDGSFFLYSKLTVDKSRWQQGNVFSCSVMHEALHYHYTQKSLSLSPGK
2. M3A_34 (other, EU numbering) CPPCPAPELLGGPSVFLFPPKPKDTLMISRTPEVTCVVVDVNHEDPEVKFNWYVDGVEVHNAKTKPREEQYNSTYRVVSVLNVLHQDWLNGKEYKCKVSNKALPAPIEKTISKAKGQPREPQVYTLPPSRDELTKNQVSLTCLVRGFYPSDIVVEWESNGQPENNYKTTPPVLDSDGSFFLYSKLTVDKSRWQQGNVFSCSVMHEALHNHYTQKSLSLSPGK
3. C7A_68 (other, EU numbering) CPPCPAPELLGGPSVFLFPPKPKDTLMISRTPEVTCVVEDVSHEDPEVKFNWYVDGVEVHNAKTKPREEQYNSTYRVVSVLTVLHQDWLDGKEYKCKVSNKALPAPIEKTISKAKGQPREPQVYTLPPSRDELTKNQVSLTCLVKGFYPSDIVVEWESNGQPENSYKTTPPVLDSDGSFFLYSKLTVDKSRWQQRNVFSCSVMHEALHYHYTQKSLSLSPGK
4. T3A_47 (other, EU numbering) CPPCPAPELLGGPSVFLFPPKPKDTLMISRTPEVTCVVVDVSHEDPEVKFNWYVDGVEVHNAKTKPREEQYNSTYRVVSVLPVLHQDWLNGKEYKCKVSNKALPAPIEKTISKAKGQPREPQVYTLPPSRDELTKNQVSLTCLVKGFYPSDITVEWESNGQPENNYKTTPPMLDSDGSFFLYSKLTVDKSRWQQGNVFSCSVMHEALHNHYTQKSLSLSPGK
5. T4A_37 (other, EU numbering) CPPCSAPELLGGPSVFLFPPKPKDTLMISRTPEVTCVVEDVSHEDPEVKFNWYVDGVEVHNAKTKPREEQYNSTYRVVSVLTVLHQDWLNGKEYKCKVSNKALPAPIEKTISKAKGQPREPQVYTLSPSRDELTKNQVSLTCLVKGFYPSDIVVEWESNGQPENNYKTTPPVLDSDGSFFLYSKLTVDKSRWQQGNVFSCSVMHEALHSHYTQKSLSLSPGK
6. T7A_57 (other, EU numbering) CPPCTAPELLGGPSVFLFPPKPKDTLMISRTPEVTCVVVDVSHEDPEVKFNWYVDGVEVHNAKTKPREEQYNSTYRVVSVLAVLHQDWLDGKEYKCKVSNKALPVPIEKTISKAKGQPREPQVYTLPPSRDELTKNQVSLTCLVKGFYPSDIAVEWESNGQPENNYKTTPPVLDSDGSFFLYSKLTVDKSRWEQGNVFSCSVMHEALHYHYTQKSLSLSPGK
7. C5A_09 (other, EU numbering) CPPCPAPELLGGPSVLLFPPKPKDTLMISRTPEVTCVVEDVSHEDPEVKFNWYVDGVEVHNAKTKPREEQYNSTYRVVSVLPVLHQDWLNGKEYKCKVSNKALPAPIEKTISKAKGQPREPQVYTLPPSRDELTKNQVSLTCLVKGFYPSDIVVEWESNGQPENNYKTTPPVLDSDGSFFLYSKLTVDKSRWQQGNVFSCSVMHEALHSHYTQKSLSLSPGK
8. M3A_26 (other, EU numbering) CPPCPAPELLGGPSVFLFPPKPKDTLMISRTPEVTCVVEDVSHEDPEVKFNWYVDGVEVHNAKTKPREEQYNSTYRVVSVLPVLHQDWLNGKEYKCKVSNKALPAPIEKTISKAEGRPREPQVYTLPPSRDELTKNQVSLTCLVKGFYPSDIVVEWESNGQPENNYKTTPPVLDSDGSFFLYSKLTVDKSRWQQGNVFSCSVMHEALHNHYTQKSLSLSPGK

1. 5.9
2. 4.3
3. 10.9
4. 6.3
5. 12.8
6. 8.1
7. 15.2
8. 5.6

State recorded Ratio/FWT for all listed binders.
1. C4A_32 (other, EU numbering) CPPCPAPELLGGPSVFLFPPKPKDTLMISRTPEVTCVVEDVSHEDPEVKFNWYVDGVEVHNAKTKPREEQYNSTYRVVSVLTVLHQDWLDGKEYKCKVSNKALPAPIEKTISKAKGQPREPQVYTLPPSRDELTKNQVSLTCLVKGFYPSDIVVEWESNGQPENNYKTTPPVLDSDGSFFLYSKLTVDKSRWQQGNVFSCSVMHEALHNHYTQKSLSLSPGK
2. T5A_87 (other, EU numbering) CPPCPAPELLGGPSVFLFPPKPKDTLMISRTPEVTCVVVDVSHEDPEVKFNWYVDGVEVHNAKTKPREEQYNSTYRVVSVLTVLHQDWLDGKEYKCKVSNKALPVPIEKTISKAKGQPREPQVYTLPPSRDELTKNRVSLTCLVKGFYPSDIAVEWESNGQPENNYKTTPPVLDSDGSFFLYSKLTVDKSRWQQGNVFSCSVMHEALHYHYTQKSLSLSPGK

[5.4, 25]

These measurements were taken from patent USRE46585.
